Target: human TRPV4 (Homo sapiens, UniProt Q9HBA0)
Construct: host or cells: tetracycline-inducible Flp-In T-REx 293 cells
Sequence (Q9HBA0 whole entry): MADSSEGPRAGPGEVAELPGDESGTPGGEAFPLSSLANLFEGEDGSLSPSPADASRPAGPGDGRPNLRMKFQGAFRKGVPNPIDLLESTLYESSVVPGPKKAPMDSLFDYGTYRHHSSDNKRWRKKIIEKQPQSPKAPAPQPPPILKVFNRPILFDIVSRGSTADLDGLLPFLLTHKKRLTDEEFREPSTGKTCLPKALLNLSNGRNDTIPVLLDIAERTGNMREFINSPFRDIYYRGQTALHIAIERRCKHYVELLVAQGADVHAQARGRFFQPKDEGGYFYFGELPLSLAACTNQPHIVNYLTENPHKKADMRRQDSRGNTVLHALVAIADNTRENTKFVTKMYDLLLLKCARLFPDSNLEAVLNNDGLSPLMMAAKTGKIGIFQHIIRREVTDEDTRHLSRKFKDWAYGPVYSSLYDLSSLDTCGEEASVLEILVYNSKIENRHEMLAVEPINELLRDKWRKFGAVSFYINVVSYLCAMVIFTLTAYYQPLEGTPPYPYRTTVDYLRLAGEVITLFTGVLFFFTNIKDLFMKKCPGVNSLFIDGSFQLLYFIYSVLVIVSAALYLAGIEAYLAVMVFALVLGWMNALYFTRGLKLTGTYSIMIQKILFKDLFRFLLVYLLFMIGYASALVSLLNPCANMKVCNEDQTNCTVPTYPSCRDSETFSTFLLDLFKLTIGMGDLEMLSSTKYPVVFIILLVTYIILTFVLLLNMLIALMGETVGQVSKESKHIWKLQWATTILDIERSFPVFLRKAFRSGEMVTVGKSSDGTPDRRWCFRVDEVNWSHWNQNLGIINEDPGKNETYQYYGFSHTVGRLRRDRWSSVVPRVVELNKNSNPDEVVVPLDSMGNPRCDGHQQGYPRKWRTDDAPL
Assay: Hypotonicity-induced Ca2+ influx (Fluo-4, FDSS)
Assay type: cell-based
Conditions: Flp-In T-REx 293 cells expressing human TRPV4, examples listed under heading 'Human IC50<50 nM'
pIC50: −log10 of the molar value.

{"COMPOUND": "O=C([C@H](O)c1cccc(C(F)(F)F)c1)N1CCCc2nc(C3(c4cc(C(=O)N(Cc5ccccc5)C5CCCCC5)cs4)CC3)[nH]c(=O)c2C1 [59-16]", "pIC50": "> 7.30"}
{"COMPOUND": "O=C([C@H](O)c1cccc(-c2ccc(Cl)c(C(F)(F)F)c2)c1)N1CCc2nc(C3(c4cccc(Cl)c4)CC3)[nH]c(=O)c2C1 [45-3]", "pIC50": "> 7.30"}
{"COMPOUND": "O=C([C@H](O)c1cccc(-c2ccc(OCc3ccccc3)nc2)c1)N1CCc2nc(C3(c4ccccc4)CC3)[nH]c(=O)c2C1 [44-83]", "pIC50": "> 7.30"}
{"COMPOUND": "O=C([C@H](O)c1cccc(-c2ccc3c(c2)OCCCO3)c1)N1CCc2nc(C3(c4ccccc4)CC3)[nH]c(=O)c2C1 [44-106]", "pIC50": "> 7.30"}
{"COMPOUND": "O=C([C@H](O)c1cccc(Cl)c1)N1CCCc2nc(C3(c4ccnc(Oc5ccccc5)c4)CC3)[nH]c(=O)c2C1 [19-9]", "pIC50": "> 7.30"}
{"COMPOUND": "O=C([C@H](O)c1cccc(-c2cccc(C(F)(F)F)c2)c1)N1CCCc2nc(C3(c4cc(-c5ccccc5)cs4)CC3)[nH]c(=O)c2C1 [54-14]", "pIC50": "> 7.30"}
{"COMPOUND": "CC(C)c1csc(C2(c3nc4c(c(=O)[nH]3)CN(C(=O)C(O)c3cccc(C(F)(F)F)c3F)CCC4)CC2)c1 (stereo not drawn) [18-16]", "pIC50": "> 7.30"}
{"COMPOUND": "O=C(Cc1cccc(-c2cccc(Cl)c2)c1)N1CCc2nc(C3(c4cccc(Cl)c4)CC3)[nH]c(=O)c2C1 [14-114]", "pIC50": "> 7.30"}
{"COMPOUND": "O=C(Cc1cccc(S(F)(F)(F)(F)F)c1)N1CCCc2nc(C3(c4ccccc4)CC3)[nH]c(=O)c2C1 [17-31]", "pIC50": "> 7.30"}
{"COMPOUND": "O=C(C(O)c1cccc(-c2cnc3ccccc3c2)c1)N1CCCc2nc(C3(c4ccccc4)CC3)[nH]c(=O)c2C1 (stereo not drawn) [49-1]", "pIC50": "> 7.30"}
{"COMPOUND": "Cc1ccc(F)cc1-c1cccc(C(O)C(=O)N2CCc3nc(C4(c5ccccc5)CC4)[nH]c(=O)c3C2)c1 (stereo not drawn) [44-39]", "pIC50": "> 7.30"}
{"COMPOUND": "CN1CCc2cc(-c3cccc(C4(c5nc6c(c(=O)[nH]5)CN(C(=O)[C@H](O)c5cccc(C(F)(F)F)c5)CCC6)CC4)c3)ccc21 [42-50]", "pIC50": "> 7.30"}
{"COMPOUND": "O=C(C(O)c1cccc(-c2cccc(OC(F)(F)F)c2)c1)N1CCc2nc(C3(c4cccs4)CC3)[nH]c(=O)c2C1 (stereo not drawn) [15-28]", "pIC50": "> 7.30"}
{"COMPOUND": "O=C(C(O)c1cccc(-c2cc(F)cc(Cl)c2)c1)N1CCc2nc(C3(c4ccccc4)CC3)[nH]c(=O)c2C1 (stereo not drawn) [44-11]", "pIC50": "> 7.30"}
{"COMPOUND": "O=C([C@H](O)c1cccc(C(F)(F)F)c1)N1CCc2nc(C3(c4cncc(-c5ccccc5)c4)CC3)[nH]c(=O)c2C1 [38-1]", "pIC50": "> 7.30"}
{"COMPOUND": "O=C(Cc1cccc(-c2cccc(C(F)(F)F)c2)c1)N1CCCc2nc(C3(c4cccc(-c5csc6ccccc56)c4)CC3)[nH]c(=O)c2C1 [17-125]", "pIC50": "> 7.30"}
{"COMPOUND": "O=C([C@H](O)c1cccc(C(F)(F)F)c1)N1CCc2nc(C3(c4cncc(C5CCCC5)c4)CC3)[nH]c(=O)c2C1 [28-1]", "pIC50": "> 7.30"}
{"COMPOUND": "CC(C)c1cncc(C2(c3nc4c(c(=O)[nH]3)CN(C(=O)[C@H](O)c3cccc(-c5cccc(C(F)(F)F)c5)c3)CCC4)CC2)c1 [55-5]", "pIC50": "> 7.30"}
{"COMPOUND": "COCCOc1cccc(-c2cccc(C(O)C(=O)N3CCc4nc(C5(c6ccccc6)CC5)[nH]c(=O)c4C3)c2)c1 (stereo not drawn) [44-29]", "pIC50": "> 7.30"}
{"COMPOUND": "O=C(C(O)c1cccc(-c2cccc(OC(F)(F)F)c2)c1)N1CCc2nc(C3(c4ccccc4)CC3)[nH]c(=O)c2C1 (stereo not drawn) [44-1]", "pIC50": "> 7.30"}
{"COMPOUND": "O=C([C@H](O)c1cccc(-c2ccnc(C(F)(F)F)c2)c1)N1CCc2nc(C3(c4ccccc4)CC3)[nH]c(=O)c2C1 [44-79]", "pIC50": "> 7.30"}
{"COMPOUND": "O=C(N1CCCc2nc(C3(c4cccc(Cl)c4)CC3)[nH]c(=O)c2C1)C(F)(F)c1cccc(C(F)(F)F)c1 [20-4]", "pIC50": "> 7.30"}
{"COMPOUND": "CC(C)c1csc(C2(c3nc4c(c(=O)[nH]3)CN(C(=O)[C@H](O)c3cccc(C(F)(F)F)c3)CC4)CC2)c1 [15-2]", "pIC50": "> 7.30"}
{"COMPOUND": "O=C(C(O)c1cccc(-c2cc(F)cc(F)c2)c1)N1CCc2nc(C3(c4ccccc4)CC3)[nH]c(=O)c2C1 (stereo not drawn) [44-45]", "pIC50": "> 7.30"}
{"COMPOUND": "CC(C)c1cccc(C2(c3nc4c(c(=O)[nH]3)CN(C(=O)Cc3cccc(-c5cccc(Cl)c5)c3)CC4)CC2)c1 [27-5]", "pIC50": "> 7.30"}
{"COMPOUND": "O=C([C@H](O)c1cccc(Cl)c1)N1CCCc2nc(C3(c4cccc(C5=CCCCC5)c4)CC3)[nH]c(=O)c2C1 [40-20]", "pIC50": "> 7.30"}
{"COMPOUND": "CC(C)c1cncc(C2(c3nc4c(c(=O)[nH]3)CN(C(=O)[C@H](O)c3cccc(-c5ccnc(C(F)(F)F)c5)c3)CCC4)CC2)c1 [55-9]", "pIC50": "> 7.30"}
